Test system: EGFP reporter (7×TetO array, basal CMV promoter) in HEK293T reporter cell line
experiment summary: TAD-seq pooled activation screen of 60-aa fragments fused to PYL1
Assay type: cell-based, human
run conditions: log 2 fold change of counts, sorted high GFP cells (top 1%) vs unsorted cells; 100 μM ABA 48 hours
measurement name: logFC high GFP
Kindly provide the number alone.

Please fill in: logFC high GFP reported for FAM22F-23: 60-aa TAD-seq fragment of FAM22F (LSYIDKLCSQEDFVTKVEAVIHPRFLEELLSPDPQMDFLALSQELEQEEGLTLAQLVEKR; listed as Homo sapiens) = 5.822

What the record says about LIN9-25: 60-aa TAD-seq fragment of LIN9 (SRLTAILLQIKCLAEGGDLNSFEFKSLTDSLNDIKSTIDASNISCFQNNVEIHVAHIQSG; listed as Homo sapiens) : logFC high GFP is 2.094

Reported logFC high GFP for MYCBP-1: 60-aa TAD-seq fragment of MYCBP (MAHYKAADSKREQFRRYLEKSGVLDTLTKVLVALYEEPEKPNSALDFLKHHLGAATPENP; listed as Homo sapiens) was 1.017

Please fill in: logFC high GFP reported for C11orf74-1: 60-aa TAD-seq fragment of C11orf74 (MSAHMSGLEIMDEDQLIKDVLDKFLNCHEQTYDEEFLNTFTHLSQDLLLLPGEVEQDVST; listed as Homo sapiens) [Fragment C11orf74-1] = 2.356

What the record says about ATOH1-1: 60-aa TAD-seq fragment of ATOH1 (MSRLLHAEEWAEVKELGDHHRQPQPHHLPQPPPPPQPPATLQAREHPVYPPELSLLDSTD; listed as Homo sapiens) : logFC high GFP is 0.7218

Memo: JAZF1-1: 60-aa TAD-seq fragment of JAZF1 (MTGIAAASFFSNTCRFGGCGLHFPTLADLIEHIEDNHIDTDPRVLEKQELQQPTYVALSY; listed as Homo sapiens) , reported logFC high GFP: 0.2848

logFC high GFP measured on BRD8-23: 60-aa TAD-seq fragment of BRD8 (KEECFRSGVAEAPVGSKAPSIDGKEELDLAEKMDIAVSYTGEELDFETVGDIIAIIEDKV; listed as Homo sapiens) = 0.5884

Summary for this substance, ZXDC-12: 60-aa TAD-seq fragment of ZXDC (SPAEQHGAQDTELSAGTGNFYLESGGSARTDYRAIQLAKEKKQRGAGSNAGASQSTQRKI; listed as Homo sapiens) : logFC high GFP is 3.966

// ZXDC-13: 60-aa TAD-seq fragment of ZXDC (YLESGGSARTDYRAIQLAKEKKQRGAGSNAGASQSTQRKIKEGKMSPPHFHASQNSWLCG; listed as Homo sapiens) : logFC high GFP value = 2.377

Form field logFC high GFP, entry KLF6-1: 60-aa TAD-seq fragment of KLF6 (MDVLPMCSIFQELQIVHETGYFSALPSLEEYWQQTCLELERYLQSEPCYVSASEIKFDSQ; listed as Homo sapiens) : 5.453

Reported logFC high GFP for YAF2-7: 60-aa TAD-seq fragment of YAF2 (SHKKTRPRLKNVDRSSAQHLEVTVGDLTVIITDFKEKTKSPPASSAASADQHSQSGSSSD; listed as Homo sapiens) was 4.987

Record NEUROG3-5: 60-aa TAD-seq fragment of NEUROG3 (RRSRRKKANDRERNRMHNLNSALDALRGVLPTFPDDAKLTKIETLRFAHNYIWALTQTLR; listed as Homo sapiens) . Reported logFC high GFP: 0.06039

Query YAF2-6: 60-aa TAD-seq fragment of YAF2 (EKKDKVEKEKSEKETTSKKNSHKKTRPRLKNVDRSSAQHLEVTVGDLTVIITDFKEKTKS; listed as Homo sapiens) yields logFC high GFP of 4.316

Briefly, logFC high GFP measured for FAM90A1-20: 60-aa TAD-seq fragment of FAM90A1 (HPAASHDGAQPLRVLFRRLENGRWSSSLLTAPSFHSPEKPGAFLAQSPHVSEKSEGPCVR; listed as Homo sapiens) : 3.017

# logFC high GFP (substance: NPAS4-39: 60-aa TAD-seq fragment of NPAS4 (CNNLSPEDHSFLEDLATYETAFETGVSAFPYDGFTDELHQLQSQVQDSFHEDGSGGEPTF; listed as Homo sapiens) ) is 0.798

The reported logFC high GFP of the substance CITED1-8: 60-aa TAD-seq fragment of CITED1 (ESLSPSAGAQSPAIIDSDPVDEEVLMSLVVELGLDRANELPELWLGQNEFDFTADFPSSC; listed as Homo sapiens) was 6.826

Documented logFC high GFP of NPAS4-31: 60-aa TAD-seq fragment of NPAS4 (DVPLVPEGLLTPEASPVKQSFFHYSEKEQNEIDRLIQQISQLAQGMDRPFSAEAGTGGLE; listed as Homo sapiens) : 1.22

Consider DDIT3-2: 60-aa TAD-seq fragment of DDIT3 (WYEDLQEVLSSDENGGTYVSPPGNEEEESKIFTTLDPASLAWLTEEEPEPAEVTSTSQSP; listed as Homo sapiens) . Its measured logFC high GFP is 1.138

For this substance ( ATMIN-32: 60-aa TAD-seq fragment of ATMIN (ETQTMSSGFETLGSLFFTSNETQTAMDDFLLADLAWNTMESQFSSVETQTSAEPHTVSNF; listed as Homo sapiens) ), measured logFC high GFP is 0.6355

Sure, the documented logFC high GFP for NPAS4-34: 60-aa TAD-seq fragment of NPAS4 (PLGGLEPLDSNLSLSGAGPPVLSLDLKPWKCQELDFLADPDNMFLEETPVEDIFMDLSTP; listed as Homo sapiens) is 0.946
